Molecular target: T1, human Gremlin/GREM1 protein (Acro) (human, UniProt O60565 25-184)
T1 construct: Bought protein (ACRO); also called hGREM1 (ACRO); human GREM1; not shown: his tag
T1 sequence (looked up): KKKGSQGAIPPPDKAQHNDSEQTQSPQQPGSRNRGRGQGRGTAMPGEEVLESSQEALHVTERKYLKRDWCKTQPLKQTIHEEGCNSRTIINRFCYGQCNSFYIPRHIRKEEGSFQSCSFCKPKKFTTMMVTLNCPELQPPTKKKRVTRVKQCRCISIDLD
Assay: ELISA, binding to hGremlin-his
Let's look at some binders and their measured EC50.
parameter.measured: EC50 (ng/mL)

>>> recorded_number("Hu14E3_HcLa (antibody, human IgG1, V domains shown, also called humanized 14E3) VH: QIQLVQSGSELKKPGASVKVSCKASGSTFTTYGMAWMKQAPGQGLTWMGWINTLSGEPTYADDFKGRFAFSLDTSVSTAYLQISSLKAEDTAVYYCAREPMDYWGQGTMVTVSS VL: DVVMTQSPLSLPVTLGQPASISCKSSQSLLDSDGKTYLSWLQQRPGQSPRRLIYLVSKLDSGVPDRFSGSGSGTDFTLKISRVEAEDVGVYYCWQGAHFPLTFGQGTKLEIK")
6.6
>>> recorded_number("Hu14E3_HcLb (antibody, human IgG1, V domains shown, also called humanized 14E3) VH: QIQLVQSGSELKKPGASVKVSCKASGSTFTTYGMAWMKQAPGQGLTWMGWINTLSGEPTYADDFKGRFAFSLDTSVSTAYLQISSLKAEDTAVYYCAREPMDYWGQGTMVTVSS VL: DVVMTQSPLSLPVTLGQPASISCKSSQSLLDSDGKTYLSWLQQRPGQSPRRLISLVSKLDSGVPDRFSGSGSGTDFTLKISRVEAEDVGVYYCWQGAHFPLTFGQGTKLEIK")
6.1
>>> recorded_number("Hu14E3_HbLb (antibody, human IgG1, V domains shown, also called humanized 14E3) VH: QIQLVQSGSELKKPGASVKVSCKASGYTFTTYGMAWMRQAPGQGLEWMGWINTLSGEPTYADDFKGRFAFSLDTSVSTAYLQISSLKAEDTAVYYCAREPMDYWGQGTMVTVSS VL: DVVMTQSPLSLPVTLGQPASISCKSSQSLLDSDGKTYLSWLQQRPGQSPRRLISLVSKLDSGVPDRFSGSGSGTDFTLKISRVEAEDVGVYYCWQGAHFPLTFGQGTKLEIK")
6.2
>>> recorded_number("Hu14E3_HbLa (antibody, human IgG1, V domains shown, also called humanized 14E3) VH: QIQLVQSGSELKKPGASVKVSCKASGYTFTTYGMAWMRQAPGQGLEWMGWINTLSGEPTYADDFKGRFAFSLDTSVSTAYLQISSLKAEDTAVYYCAREPMDYWGQGTMVTVSS VL: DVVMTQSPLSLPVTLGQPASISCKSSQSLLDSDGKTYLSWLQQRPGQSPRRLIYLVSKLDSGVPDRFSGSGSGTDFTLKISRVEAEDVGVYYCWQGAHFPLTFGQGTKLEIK")
6
